tested on: HL-60; assay: NCI tumour cell line growth inhibition, 48 h
Activity calls are given as the source filed them. Cut-off read from the data, not from the text of the source: active = GI50 up to about 1.1 µM and inactive = higher.
Respond using exactly one of the listed classes: t for active, f for inactive

Prompt: So what was the verdict on `N/C(=N\Nc1nc2cc([N+](=O)[O-])ccc2o1)c1ccccn1` in this test?
Completion: t

Prompt: I'd appreciate the recorded outcome for O=C1c2ccccc2C2(O)Oc3cccc(O)c3C12O (configuration not stated) from this test.
Completion: f

Prompt: GET /call?item= `COc1ccc2c(c1)[n+]([O-])c(C(=O)C/C(=N\NC(=O)C[N+](C)(C)C)C(=O)Nc1cc(Cl)ccc1Cl)c(C)[n+]2[O-]` returns the recorded outcome of this test.
Completion: f

Prompt: Which outcome did this test record for the molecule `COC(=O)/C(=C\C(=O)c1ccc(Br)cc1)NN=C(c1ccccc1)c1ccccc1` ?
Completion: f
